Recorded values, source patent US8859559B2.

Tgt: ENaC (Epithelial Sodium Channel) (Mus musculus, UniProt Q61180+Q9WU38+Q9WU39)
Construct: Mouse kidney M-1 cells were cultivated in DMEM; endogenous in cells
Sequence (Q61180 1-699): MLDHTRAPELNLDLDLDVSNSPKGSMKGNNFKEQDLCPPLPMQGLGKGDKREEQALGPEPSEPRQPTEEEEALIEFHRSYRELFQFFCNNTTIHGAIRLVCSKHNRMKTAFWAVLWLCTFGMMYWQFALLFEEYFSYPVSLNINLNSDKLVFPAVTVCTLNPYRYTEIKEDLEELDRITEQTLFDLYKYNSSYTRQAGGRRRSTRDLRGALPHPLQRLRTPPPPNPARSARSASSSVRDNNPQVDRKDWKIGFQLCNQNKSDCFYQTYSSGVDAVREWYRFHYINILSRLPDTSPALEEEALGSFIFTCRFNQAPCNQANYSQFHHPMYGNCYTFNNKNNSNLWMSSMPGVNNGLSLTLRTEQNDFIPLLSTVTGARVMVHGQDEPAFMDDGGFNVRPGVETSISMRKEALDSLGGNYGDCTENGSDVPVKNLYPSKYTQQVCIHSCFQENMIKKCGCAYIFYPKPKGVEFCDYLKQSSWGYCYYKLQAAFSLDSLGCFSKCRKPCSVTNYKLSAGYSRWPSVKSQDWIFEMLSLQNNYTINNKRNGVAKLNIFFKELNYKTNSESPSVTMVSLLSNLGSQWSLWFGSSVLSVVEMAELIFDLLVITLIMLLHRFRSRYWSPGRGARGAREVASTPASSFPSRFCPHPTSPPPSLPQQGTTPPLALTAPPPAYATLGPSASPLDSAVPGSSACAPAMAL
Sequence (Q9WU38 1-638): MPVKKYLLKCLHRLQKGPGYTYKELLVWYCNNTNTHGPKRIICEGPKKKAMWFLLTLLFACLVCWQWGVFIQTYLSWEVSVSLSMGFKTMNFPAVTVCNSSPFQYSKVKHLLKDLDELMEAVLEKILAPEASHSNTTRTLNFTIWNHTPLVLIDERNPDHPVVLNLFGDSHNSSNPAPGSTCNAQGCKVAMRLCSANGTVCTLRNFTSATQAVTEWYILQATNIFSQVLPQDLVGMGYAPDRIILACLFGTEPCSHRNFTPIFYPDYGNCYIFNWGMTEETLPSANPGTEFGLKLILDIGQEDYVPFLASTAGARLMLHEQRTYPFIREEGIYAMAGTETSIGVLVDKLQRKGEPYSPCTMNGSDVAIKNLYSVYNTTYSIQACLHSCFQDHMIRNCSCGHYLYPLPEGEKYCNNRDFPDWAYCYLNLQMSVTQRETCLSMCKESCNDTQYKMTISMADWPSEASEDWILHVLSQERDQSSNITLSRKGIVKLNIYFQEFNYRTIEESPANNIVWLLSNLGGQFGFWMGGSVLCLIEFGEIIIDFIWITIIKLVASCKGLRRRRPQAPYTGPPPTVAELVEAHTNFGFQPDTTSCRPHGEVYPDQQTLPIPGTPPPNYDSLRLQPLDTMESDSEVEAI
Sequence (Q9WU39 1-655): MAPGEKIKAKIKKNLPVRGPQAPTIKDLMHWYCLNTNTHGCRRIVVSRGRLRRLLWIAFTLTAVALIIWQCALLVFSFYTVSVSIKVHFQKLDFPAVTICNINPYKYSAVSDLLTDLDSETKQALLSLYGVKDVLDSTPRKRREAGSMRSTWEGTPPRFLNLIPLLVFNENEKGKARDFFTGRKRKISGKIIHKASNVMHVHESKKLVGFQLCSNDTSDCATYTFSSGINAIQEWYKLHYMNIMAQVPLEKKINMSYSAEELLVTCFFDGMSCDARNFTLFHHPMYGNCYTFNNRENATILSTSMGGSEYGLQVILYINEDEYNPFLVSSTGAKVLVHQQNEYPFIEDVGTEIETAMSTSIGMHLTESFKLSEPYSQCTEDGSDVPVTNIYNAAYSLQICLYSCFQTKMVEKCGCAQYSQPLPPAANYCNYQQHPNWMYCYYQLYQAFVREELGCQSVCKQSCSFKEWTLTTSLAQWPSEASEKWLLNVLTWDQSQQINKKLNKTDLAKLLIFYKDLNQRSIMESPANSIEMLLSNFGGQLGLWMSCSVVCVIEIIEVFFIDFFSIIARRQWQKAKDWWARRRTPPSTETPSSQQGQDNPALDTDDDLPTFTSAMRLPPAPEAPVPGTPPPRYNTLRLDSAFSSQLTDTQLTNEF
Test: Ussing chamber: inhibition of amiloride sensitive short circuit current (I_sc) in M-1 cells
Experimental Parameters: mouse kidney M-1 cells
Quantity Name: IC50 (nM)

Mol | Tgt | Quantity Name | Recorded Measurement
NC(=NC(=O)c1nc(Cl)c(N)nc1N)NC1CCN(Cc2cccc(-c3cn(CCOCCOCCOCCOCCOCCOC(c4ccccc4)(c4ccccc4)c4ccccc4)nn3)c2)CC1 | ENaC (Epithelial Sodium Channel) (Mus musculus, UniProt Q61180+Q9WU38+Q9WU39) | IC50 | 9
NC(=NC(=O)c1nc(Cl)c(N)nc1N)NC1CCN(Cc2ccc(-c3cn(CCOCCOCCOCCO)nn3)cc2)CC1 | ENaC (Epithelial Sodium Channel) (Mus musculus, UniProt Q61180+Q9WU38+Q9WU39) | IC50 | 8
NC(=NC(=O)c1nc(Cl)c(N)nc1N)NC1CCN(Cc2ccc(-c3cn(CCOCCOCCOCCNCCOCCOCCO)nn3)cc2)CC1 | ENaC (Epithelial Sodium Channel) (Mus musculus, UniProt Q61180+Q9WU38+Q9WU39) | IC50 | 4

###

Recorded IC50 for the following compounds
Tgt: ENaC (Epithelial Sodium Channel) (Mus musculus, UniProt Q61180+Q9WU38+Q9WU39)
Construct: Mouse kidney M-1 cells were cultivated in DMEM; endogenous in cells
Test: Ussing chamber: inhibition of amiloride sensitive short circuit current (I_sc) in M-1 cells
Experimental Parameters: mouse kidney M-1 cells

Compound | IC50 (nM)
[N-]=[N+]=NCCOCCOCCOCCn1cc(COc2ccc(CN3CCC(NC(N)=NC(=O)c4nc(Cl)c(N)nc4N)CC3)cc2)nn1 | 2
NC(=NC(=O)c1nc(Cl)c(N)nc1N)NC1CC2CCC(C1)N2Cc1ccccc1 (single isomer, unassigned) [Example 1.27] | 49
[N-]=[N+]=NCCOCCOCCOCCNC(=O)c1ccc(CN2CCC(NC(N)=NC(=O)c3nc(Cl)c(N)nc3N)CC2)cc1 | 4
CC(=O)N1CCN(C(=O)CCc2cn(CCc3ccc(CN4CCC(NC(N)=NC(=O)c5nc(Cl)c(N)nc5N)CC4)cc3)nn2)CC1 | 16
COC(=O)c1ccc(CN2CCC(N/C(N)=N/C(=O)c3nc(Cl)c(N)nc3N)CC2)c(Cl)c1 | 4
CC[N+](CC)(CC)Cc1ccc(CCn2cc(-c3cccc(CN4CCC(NC(N)=NC(=O)c5nc(Cl)c(N)nc5N)CC4)c3)nn2)cc1 | 1
NC(=NC(=O)c1nc(Cl)c(N)nc1N)NC1CCN(Cc2ccc(CCn3cc(COCC(CO)(CO)CO)nn3)cc2)CC1 | 22
CCOP(=O)(Cc1ccc(CN2CCC(NC(N)=NC(=O)c3nc(Cl)c(N)nc3N)CC2)cc1)OCC | 10
N/C(=N\C(=O)c1nc(Cl)c(N)nc1N)NC1CCN(Cc2ccc(-c3cn(CCOCCOCCO)nn3)cc2)CC1 | 3
NC(=NC(=O)c1nc(Cl)c(N)nc1N)NC1CCN(Cc2cccc(CC(=O)O)c2)CC1 | 24
NC(=NC(=O)c1nc(Cl)c(N)nc1N)NC1CCN(Cc2ccc(-n3cc(CCC(=O)N(CCO)CCO)nn3)cc2)CC1 | 5
NC(=NC(=O)c1nc(Cl)c(N)nc1N)NC1CCN(Cc2ccc(S(=O)(=O)NCCO)cc2)CC1 | 6
N/C(=N\C(=O)c1nc(Cl)c(N)nc1N)NC1CCN(Cc2ccc(OCC(=O)O)cc2)CC1 | 86
NC(=NC(=O)c1nc(Cl)c(N)nc1N)NC1CCN(Cc2ccc(C(=O)NCCOCCOCCOCCn3cc(COCCO)nn3)cc2)CC1 | 19

###

Recorded IC50 for the following molecules
Tgt: ENaC (Epithelial Sodium Channel) (Mus musculus, UniProt Q61180+Q9WU38+Q9WU39)
Construct: Mouse kidney M-1 cells were cultivated in DMEM; endogenous in cells
Sequence (Q61180 1-699): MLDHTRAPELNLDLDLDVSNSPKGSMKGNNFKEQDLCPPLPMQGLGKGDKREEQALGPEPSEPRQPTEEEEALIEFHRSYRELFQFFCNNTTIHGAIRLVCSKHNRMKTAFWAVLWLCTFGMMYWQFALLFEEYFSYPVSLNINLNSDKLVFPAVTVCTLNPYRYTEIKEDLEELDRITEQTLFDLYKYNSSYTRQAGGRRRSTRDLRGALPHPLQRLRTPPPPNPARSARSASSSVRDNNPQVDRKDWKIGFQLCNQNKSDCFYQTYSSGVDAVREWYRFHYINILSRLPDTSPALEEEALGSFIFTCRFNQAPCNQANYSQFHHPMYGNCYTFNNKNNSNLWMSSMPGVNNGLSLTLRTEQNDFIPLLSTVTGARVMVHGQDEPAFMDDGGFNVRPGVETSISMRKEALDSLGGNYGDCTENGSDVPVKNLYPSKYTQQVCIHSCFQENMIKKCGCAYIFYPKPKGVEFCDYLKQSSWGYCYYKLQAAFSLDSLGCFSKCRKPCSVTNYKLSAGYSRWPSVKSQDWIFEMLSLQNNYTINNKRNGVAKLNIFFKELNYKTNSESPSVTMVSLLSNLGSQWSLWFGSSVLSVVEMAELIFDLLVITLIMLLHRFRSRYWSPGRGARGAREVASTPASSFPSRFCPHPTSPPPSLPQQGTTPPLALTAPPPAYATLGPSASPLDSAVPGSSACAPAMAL
Sequence (Q9WU38 1-638): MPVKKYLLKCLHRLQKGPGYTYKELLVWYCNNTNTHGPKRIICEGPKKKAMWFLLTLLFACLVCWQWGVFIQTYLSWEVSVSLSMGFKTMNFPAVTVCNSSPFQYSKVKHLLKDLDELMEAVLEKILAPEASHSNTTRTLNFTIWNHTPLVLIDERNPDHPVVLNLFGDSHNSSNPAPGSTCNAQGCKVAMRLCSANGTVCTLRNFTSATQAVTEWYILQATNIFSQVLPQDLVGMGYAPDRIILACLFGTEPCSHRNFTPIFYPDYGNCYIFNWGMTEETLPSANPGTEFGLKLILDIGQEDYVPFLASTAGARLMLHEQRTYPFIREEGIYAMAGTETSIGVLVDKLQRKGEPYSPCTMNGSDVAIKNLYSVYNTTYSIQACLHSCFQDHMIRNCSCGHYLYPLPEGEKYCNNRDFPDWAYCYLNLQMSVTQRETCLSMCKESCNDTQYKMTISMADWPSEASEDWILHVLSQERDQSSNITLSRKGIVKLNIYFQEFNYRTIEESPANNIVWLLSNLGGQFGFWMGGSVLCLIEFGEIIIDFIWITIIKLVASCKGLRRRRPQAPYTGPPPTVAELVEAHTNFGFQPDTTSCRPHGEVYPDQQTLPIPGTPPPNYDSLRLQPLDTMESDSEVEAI
Sequence (Q9WU39 1-655): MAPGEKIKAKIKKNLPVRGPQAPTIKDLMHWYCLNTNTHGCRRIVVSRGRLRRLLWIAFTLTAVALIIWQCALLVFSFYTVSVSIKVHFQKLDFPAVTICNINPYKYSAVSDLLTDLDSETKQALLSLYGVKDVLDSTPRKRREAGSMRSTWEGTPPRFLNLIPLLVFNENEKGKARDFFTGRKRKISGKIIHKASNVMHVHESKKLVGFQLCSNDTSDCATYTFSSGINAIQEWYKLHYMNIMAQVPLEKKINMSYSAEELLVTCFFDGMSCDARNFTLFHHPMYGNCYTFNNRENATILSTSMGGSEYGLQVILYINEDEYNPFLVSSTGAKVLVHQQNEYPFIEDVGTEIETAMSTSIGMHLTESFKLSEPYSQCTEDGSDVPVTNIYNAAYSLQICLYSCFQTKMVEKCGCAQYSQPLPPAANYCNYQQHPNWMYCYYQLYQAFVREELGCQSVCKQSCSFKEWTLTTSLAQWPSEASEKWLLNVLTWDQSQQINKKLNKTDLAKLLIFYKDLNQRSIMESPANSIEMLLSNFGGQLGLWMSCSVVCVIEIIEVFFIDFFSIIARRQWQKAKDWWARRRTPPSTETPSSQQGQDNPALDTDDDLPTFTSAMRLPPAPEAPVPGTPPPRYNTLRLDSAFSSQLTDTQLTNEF
Test: Ussing chamber: inhibition of amiloride sensitive short circuit current (I_sc) in M-1 cells
Experimental Parameters: mouse kidney M-1 cells

Molecule | Tgt | Units | IC50
NC(=NC(=O)c1nc(Cl)c(N)nc1N)NC1CCN(Cc2ccc(-n3cc(C(=O)O)ccc3=O)cc2)CC1 [Example 8.4] | ENaC (Epithelial Sodium Channel) (Mus musculus, UniProt Q61180+Q9WU38+Q9WU39) | nM | 210
CN(C)Cc1cn(-c2ccc(CN3CCC(NC(N)=NC(=O)c4nc(Cl)c(N)nc4N)CC3)cc2)nn1 [Example 3.15] | ENaC (Epithelial Sodium Channel) (Mus musculus, UniProt Q61180+Q9WU38+Q9WU39) | nM | 2
COC(=O)c1ccccc1CN1CCC(NC(N)=NC(=O)c2nc(Cl)c(N)nc2N)CC1 [Example 1.43] | ENaC (Epithelial Sodium Channel) (Mus musculus, UniProt Q61180+Q9WU38+Q9WU39) | nM | 15
N/C(=N\C(=O)c1nc(Cl)c(N)nc1N)NC1CCN(C(C(=O)O)c2ccccc2)CC1 (centres unmarked) [Example 8.1] | ENaC (Epithelial Sodium Channel) (Mus musculus, UniProt Q61180+Q9WU38+Q9WU39) | nM | 136
NC(=NC(=O)c1nc(Cl)c(N)nc1N)NC1CCN(Cc2ccccc2)C1 (centres unmarked) [Example 1.26] | ENaC (Epithelial Sodium Channel) (Mus musculus, UniProt Q61180+Q9WU38+Q9WU39) | nM | 20
NC(=NC(=O)c1nc(Cl)c(N)nc1N)NC1CC2CCC(C1)N2Cc1ccccc1 (single isomer, unassigned) [Example 1.28] | ENaC (Epithelial Sodium Channel) (Mus musculus, UniProt Q61180+Q9WU38+Q9WU39) | nM | 16
N/C(=N\C(=O)c1nc(Cl)c(N)nc1N)NC1CCN(Cc2ccc(C(=O)O)cc2)CC1 [Example 1.51] | ENaC (Epithelial Sodium Channel) (Mus musculus, UniProt Q61180+Q9WU38+Q9WU39) | nM | 23
N/C(=N\C(=O)c1nc(Cl)c(N)nc1N)NC1CCN(Cc2ccc(CP(=O)(O)O)cc2)CC1 [Example 7.1] | ENaC (Epithelial Sodium Channel) (Mus musculus, UniProt Q61180+Q9WU38+Q9WU39) | nM | 477
